ASSAY_EXPLANATION: Cytotoxicity against human AC16 cells assessed as cell survival at 50 uM measured after 72 hrs by MTT assay relative to control
Format: cell-based
EXPERIMENTAL_SETUP: read-out: Activity
MEASURED_PARAMETER: viability at 72 h, 50 µM

| STRUCTURE | RESULT |
| --- | --- |
| CCCN(C(=O)CCCCCCC(=O)N(CCC)[C@H]1CC2=CC(=O)O[C@]23C[C@H]1N1CCCC[C@H]13)[C@H]1CC2=CC(=O)O[C@]23C[C@H]1N1CCCC[C@H]13 | 100% |

----------
SYSTEM_UNDER_TEST: ATP-dependent translocase ABCB1 (Homo sapiens, UniProt P08183)
Sequence (P08183 whole entry): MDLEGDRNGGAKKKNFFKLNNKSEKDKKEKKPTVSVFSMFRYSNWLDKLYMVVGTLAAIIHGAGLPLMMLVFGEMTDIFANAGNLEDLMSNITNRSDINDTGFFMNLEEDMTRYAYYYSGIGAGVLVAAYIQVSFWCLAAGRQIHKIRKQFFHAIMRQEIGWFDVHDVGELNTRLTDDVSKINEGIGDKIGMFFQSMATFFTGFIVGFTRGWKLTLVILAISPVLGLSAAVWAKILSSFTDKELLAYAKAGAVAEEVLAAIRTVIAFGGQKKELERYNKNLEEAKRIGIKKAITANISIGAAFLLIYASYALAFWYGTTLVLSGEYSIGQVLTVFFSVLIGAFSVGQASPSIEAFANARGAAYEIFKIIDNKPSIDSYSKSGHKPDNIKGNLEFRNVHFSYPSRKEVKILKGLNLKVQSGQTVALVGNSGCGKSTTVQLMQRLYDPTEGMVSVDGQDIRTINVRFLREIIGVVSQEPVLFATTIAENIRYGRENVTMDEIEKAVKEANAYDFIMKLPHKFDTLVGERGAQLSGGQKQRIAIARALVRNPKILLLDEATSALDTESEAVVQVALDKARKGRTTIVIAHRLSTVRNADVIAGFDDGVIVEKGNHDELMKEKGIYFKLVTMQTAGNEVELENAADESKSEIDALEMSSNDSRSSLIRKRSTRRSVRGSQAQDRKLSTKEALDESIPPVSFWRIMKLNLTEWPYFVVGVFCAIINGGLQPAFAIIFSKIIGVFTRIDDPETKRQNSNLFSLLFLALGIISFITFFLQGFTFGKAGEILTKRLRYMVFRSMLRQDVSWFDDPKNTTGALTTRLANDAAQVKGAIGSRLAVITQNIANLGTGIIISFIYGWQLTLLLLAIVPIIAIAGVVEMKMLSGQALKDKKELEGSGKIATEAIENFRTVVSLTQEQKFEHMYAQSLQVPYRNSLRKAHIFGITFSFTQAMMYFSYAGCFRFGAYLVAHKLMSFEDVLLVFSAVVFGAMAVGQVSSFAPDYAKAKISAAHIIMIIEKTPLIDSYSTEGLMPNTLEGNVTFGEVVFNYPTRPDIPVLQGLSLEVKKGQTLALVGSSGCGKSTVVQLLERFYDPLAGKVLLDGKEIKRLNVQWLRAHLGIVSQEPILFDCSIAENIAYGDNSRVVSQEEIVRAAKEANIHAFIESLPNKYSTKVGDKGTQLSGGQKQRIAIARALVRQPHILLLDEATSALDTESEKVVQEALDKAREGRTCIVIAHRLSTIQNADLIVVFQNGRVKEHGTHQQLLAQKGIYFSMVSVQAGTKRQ
ASSAY_EXPLANATION: Reversal of P-gp mediated multidrug resistance in human MCF7/ADM cells assessed as potentiation of doxorubicin-induced cell growth inhibition at 10 uM measured after 48 hrs by MTT assay (reference value: 5%)
Assay type: cell-based

| MOLECULE | SYSTEM_UNDER_TEST | inhibition at 10 µM |
| --- | --- | --- |
| O=C1C=C2C=C[C@@H]3C[C@@]2(O1)[C@H]1CCCCN31 | ATP-dependent translocase ABCB1 (Homo sapiens, UniProt P08183) | 31% |
| CCCN(C(=O)CCCCCCC(=O)N(CCC)[C@H]1CC2=CC(=O)O[C@]23C[C@H]1N1CCCC[C@H]13)[C@H]1CC2=CC(=O)O[C@]23C[C@H]1N1CCCC[C@H]13 | ATP-dependent translocase ABCB1 (Homo sapiens, UniProt P08183) | 78% |
| COc1ccc(CCN(C)CCCC(C#N)(c2ccc(OC)c(OC)c2)C(C)C)cc1OC (centres undefined) | ATP-dependent translocase ABCB1 (Homo sapiens, UniProt P08183) | 70% |
| CCCN(C(=O)CCCCCC(=O)N(CCC)[C@H]1CC2=CC(=O)O[C@@]23C[C@@H]1N1CCCC[C@@H]13)[C@H]1CC2=CC(=O)O[C@@]23C[C@@H]1N1CCCC[C@@H]13 | ATP-dependent translocase ABCB1 (Homo sapiens, UniProt P08183) | 84% |
